Data origin: patent US5623080A

- method: fluorescence (λf, φf)
- Assay type: physicochemical
- condition-notes: MeOH
value-kind: λf (nm)
Just the number in nm, nothing appended.

Given O=c1c(Br)cc2cc3cc(Br)c(O)c(Br)c3oc-2c1Br [TBHF, 3-hydroxy-2,4,5,7-tetrabromo-6-fluorone] , state its recorded λf. 539

###

Reported λmax in EtOH values are given for each entry in this list.
- method: absorption wavelength (λmax) and extinction (ε)
- Assay type: physicochemical
- condition-notes: EtOH; Table 1
Form rule: numeric answer, no unit written next to it.

Use the examples below as a reference point.
N#Cc1c2ccc(=O)cc-2oc2cc(O)ccc12 [O O/O^- CN H H H H, 9-Cyano-3-hydroxy-6-fluorone] :: 548
N#Cc1c2cc(Br)c(=O)c(Br)c-2oc2c(Br)c(O)c(Br)cc12 :: 576
CC(C)(C)c1cc2c(C#N)c3cc(C(C)(C)C)c(=O)cc-3oc2cc1O :: 564
N#Cc1c2cc(I)c(=O)c(I)c-2oc2c(I)c(O)c(I)cc12 :: 586

Given `CC(C)(C)c1cc2c(C#N)c3cc(C(C)(C)C)c(=O)c(I)c-3oc2c(I)c1O` , state its recorded λmax in EtOH. 582

###

Reported ε values are given for each entry in this list.
- method: absorption wavelength (λmax) and extinction (ε)
- Type: physicochemical
- condition-notes: EtOH; at second λmax; Table 1
Just the number in M⁻¹ cm⁻¹, nothing appended.

Given N#Cc1c2ccc(=O)cc-2oc2cc(O)ccc12 [O O/O^- CN H H H H, 9-Cyano-3-hydroxy-6-fluorone] , state its recorded ε. 24700

###

- method: absorption wavelength (λmax) and extinction (ε)
- Format: physicochemical
- condition-notes: EtOH; Table 1
Reported λmax in EtOH (first value) values are given for each entry in this list.

CCCCCCCCOc1ccc2cc3cc(I)c(=O)c(I)c-3oc2c1 [DIOF, 5,7-diiodo-3-octoxy-6-fluorone] :: 470

Now look at this entry.
Given O=c1c(Br)cc2cc3cc(Br)c(O)c(Br)c3oc-2c1Br [TBHF, 3-hydroxy-2,4,5,7-tetrabromo-6-fluorone] , state its recorded λmax in EtOH (first value). 530

###

- method: absorption wavelength (λmax) and extinction (ε)
- Type: physicochemical
- condition-notes: EtOH; at first λmax; Table 1; in M-1cm-1 (unit assumed)
value-kind: ε (first value)
Form rule: numeric answer, no unit written next to it.

Use the examples below as a reference point.
O=c1c(I)cc2cc3cc(I)c(O)c(I)c3oc-2c1I [TIHF, 3-hydroxy-2,4,5,7-tetraiodo-6-fluorone] :: 91200
CC(C)(C)c1cc2cc3cc(C(C)(C)C)c(=O)cc-3oc2cc1O [Compound 30, 2,7-di-t-butyl-3-hydroxy-6-fluorone] :: 101000

Now look at this entry.
Given O=c1ccc2cc3ccc(O)cc3oc-2c1 [HF, 3-Hydroxy-6-fluorone] , state its recorded ε (first value). 24700

###

- method: absorption wavelength (λmax) and extinction (ε)
- Format: physicochemical
- condition-notes: EtOH; at first λmax; Table 1; in M-1cm-1 (unit assumed)
Quick rule for you: ε (first value) at 70000 or higher means T, lower means F.

Take a look at these entries with their results.
N#Cc1c2cc(Br)c(=O)c(Br)c-2oc2c(Br)c(O)c(Br)cc12 [Compound 14] :: F
N#Cc1c2ccc(=O)cc-2oc2cc(O)ccc12 [O O/O^- CN H H H H, 9-Cyano-3-hydroxy-6-fluorone] :: F
N#Cc1c2cc(I)c(=O)c(I)c-2oc2c(I)c(O)c(I)cc12 [TIHCF] :: T
O=c1c(Br)cc2cc3cc(Br)c(O)c(Br)c3oc-2c1Br [TBHF, 3-hydroxy-2,4,5,7-tetrabromo-6-fluorone] :: F
CC(C)(C)c1cc2c(C#N)c3cc(C(C)(C)C)c(=O)cc-3oc2cc1O [Compound 31] :: F

Attention now shifts to the item below.
Decide: ε (first value) of CC(C)(C)c1cc2cc3cc(C(C)(C)C)c(=O)c(I)c-3oc2c(I)c1O [Compound 26] >= 70000? T

###

- method: absorption wavelength (λmax) and extinction (ε)
- Assay type: physicochemical
- condition-notes: EtOH; at second λmax; Table 1
value-kind: ε (M⁻¹ cm⁻¹)
Just the number in M⁻¹ cm⁻¹, nothing appended.

Use the examples below as a reference point.
CC(C)(C)c1cc2c(C#N)c3cc(C(C)(C)C)c(=O)cc-3oc2cc1O [Compound 31] :: 23200
CC(C)(C)c1cc2c(C#N)c3cc(C(C)(C)C)c(=O)c(I)c-3oc2c(I)c1O [Compound 27] :: 33600
N#Cc1c2cc(I)c(=O)c(I)c-2oc2c(I)c(O)c(I)cc12 [TIHCF] :: 35000

Now look at this entry.
Given N#Cc1c2cc(Br)c(=O)c(Br)c-2oc2c(Br)c(O)c(Br)cc12 [Compound 14] , state its recorded ε. 24500

###

- method: absorption wavelength (λmax) and extinction (ε)
- Assay type: physicochemical
- condition-notes: EtOH; Table 1
Reported λmax in EtOH (first value) values are given for each entry in this list.
Form rule: numeric answer, no unit written next to it.

Use the examples below as a reference point.
C=CC(=O)OCCCCCCOc1ccc2cc3cc(I)c(=O)c(I)c-3oc2c1 :: 472
O=c1ccc2cc3ccc(O)cc3sc-2c1 [Compound 29, 3-hydroxy-6-thiafluorone] :: 524
O=c1c(I)cc2cc3cc(I)c(O)c(I)c3oc-2c1I [TIHF, 3-hydroxy-2,4,5,7-tetraiodo-6-fluorone] :: 536
Cc1ccc(-n2c3cc(=N)ccc-3cc3ccc(N)cc32)cc1 :: 472
CCCCCCCCc1cc2cc3cc(I)c(=O)c(I)c-3oc2c(I)c1O :: 534
CCCCCCCC(=O)c1cc2c(C#N)c3cc(I)c(=O)c(I)c-3oc2c(I)c1O :: 636

Given `CC(C)(C)c1cc2cc3cc(C(C)(C)C)c(=O)c(I)c-3oc2c(I)c1O` , state its recorded λmax in EtOH (first value). 532

Given `CCOC(=O)CCCc1cc2cc3ccc(=O)cc-3oc2cc1O` , state its recorded λmax in EtOH (first value). 510

Given CC(C)(C)c1cc2cc3cc(C(C)(C)C)c(=O)cc-3oc2cc1O [Compound 30, 2,7-di-t-butyl-3-hydroxy-6-fluorone] , state its recorded λmax in EtOH (first value). 518

Given N#Cc1c2ccc(=O)cc-2oc2cc(O)c(CCCC(=O)O)cc12 [Compound 37b] , state its recorded λmax in EtOH (first value). 596

Given N#Cc1c2ccc(=O)cc-2oc2cc(O)ccc12 [O O/O^- CN H H H H, 9-Cyano-3-hydroxy-6-fluorone] , state its recorded λmax in EtOH (first value). 594

Given `CCCCOc1ccc2c(C#N)c3cc(I)c(=O)c(I)c-3oc2c1` , state its recorded λmax in EtOH (first value). 600

Given O=c1ccc2cc3ccc(O)cc3oc-2c1 [HF, 3-Hydroxy-6-fluorone] , state its recorded λmax in EtOH (first value). 504

Given `N#Cc1c2cc(I)c(=O)c(I)c-2oc2c(I)c(O)c(I)cc12` , state its recorded λmax in EtOH (first value). 638

Given `CCCCCCCCc1cc2c(C#N)c3cc(I)c(=O)c(I)c-3oc2c(I)c1O` , state its recorded λmax in EtOH (first value). 630

Given `CCOc1ccc2cc3cc(I)c(=O)c(I)c-3oc2c1` , state its recorded λmax in EtOH (first value). 470

Given `CC(C)(C)c1cc2c(C#N)c3cc(C(C)(C)C)c(=O)cc-3oc2cc1O` , state its recorded λmax in EtOH (first value). 614

Given `CCCCOc1ccc2cc3cc(I)c(=O)c(I)c-3oc2c1` , state its recorded λmax in EtOH (first value). 470

Given `CCCCCCCC(=O)c1cc2cc3cc(I)c(=O)c(I)c-3oc2c(I)c1O` , state its recorded λmax in EtOH (first value). 538

Given `N#Cc1c2cc(Br)c(=O)c(Br)c-2oc2c(Br)c(O)c(Br)cc12` , state its recorded λmax in EtOH (first value). 626

Given O=C(O)CCCc1cc2cc3ccc(O)cc3oc-2cc1=O [Compound 37a, 3-hydroxy-7-butyric acid-6-fluorone] , state its recorded λmax in EtOH (first value). 512

Given `CC(C)(C)c1cc2c(C#N)c3cc(C(C)(C)C)c(=O)c(I)c-3oc2c(I)c1O` , state its recorded λmax in EtOH (first value). 636

Given `N#Cc1c2ccc(=O)cc-2sc2cc(O)ccc12` , state its recorded λmax in EtOH (first value). 610

###

- method: absorption wavelength (λmax) and extinction (ε)
- Type: physicochemical
- condition-notes: EtOH; at first λmax; Table 1; in M-1cm-1 (unit assumed)
Reported ε (first value) values are given for each entry in this list.

Use the examples below as a reference point.
CCCCCCCC(=O)c1cc2cc3cc(I)c(=O)c(I)c-3oc2c(I)c1O [Compound 17] :: 84,800
CC(C)(C)c1cc2c(C#N)c3cc(C(C)(C)C)c(=O)c(I)c-3oc2c(I)c1O [Compound 27] :: 68300
CCCCCCCCc1cc2cc3cc(I)c(=O)c(I)c-3oc2c(I)c1O [O O/O^- H I H I (CH2)7 CH3] :: 92,600
CCCCCCCC(=O)c1cc2c(C#N)c3cc(I)c(=O)c(I)c-3oc2c(I)c1O [Compound 18] :: 17,000
CCCCOc1ccc2cc3cc(I)c(=O)c(I)c-3oc2c1 [DIBF, 5,7-diiodo-3-butoxy-6-fluorone] :: 30,200

Given CCOc1ccc2cc3cc(I)c(=O)c(I)c-3oc2c1 [DIEF, 5,7-diiodo-3-ethoxy-6-fluorone] , state its recorded ε (first value). 21,100

Given CCCCCCCCOc1ccc2cc3cc(I)c(=O)c(I)c-3oc2c1 [DIOF, 5,7-diiodo-3-octoxy-6-fluorone] , state its recorded ε (first value). 31,600

Given N#Cc1c2ccc(=O)cc-2oc2cc(O)c(CCCC(=O)O)cc12 [Compound 37b] , state its recorded ε (first value). 74,000
